Target: T1, HLA-G antigen produced in Example 1 (signal peptide-b2m-HLA-G-6xHis; monomer or dimer not stated) (human)
T1 construct: also called b2m-HLA-G antigen
Assay: Octet (BLI); form of the antigen not stated
measured_parameter: Kd (nM)

>>> result("Anti-HLA-G antibody 1 (antibody, V domains shown) VH: EVQLLESGGGLVQPGGSLRLSCAASGFTFSDYAMSWVRQAPGKGLEWVSVISHDGDRVYYADSVKGRFTISRDNSKNTLYLQMNSLRAEDTAVYYCAKGPRRIANAIFDYWGQGTLVTVSS VL: QLVLTQPPSVSGAPGQKVTISCSGSSSNIGHSYVSWYQQLPGTAPKLLIYGDNNRPSGVPDRFSGSKSGTSASLAITGLQAEDEADYYCQSYDSSLSGYVFGTGTKVTVL")
0.284
>>> result("Anti-HLA-G antibody 3 (antibody, IgG1, V domains shown) VH: EVQLLESGGGLVQPGGSLRLSCAASGFTFSDYSMSWVRQAPGKGLEWVSAISPDRSLEYYADSVKGRFTISRDNSKNTLYLQMNSLRAEDTAVYYCAKGPRHLTNNIFDYWGQGTLVTVSS VL: QFVLTQPPSVSAAPGQKVTISCSGSSSNIGHSYVSWYQQLPGTAPKLLIYGNIHRPSGVPDRFSGSTSGTSASLAITGLQADDEADYYCGVWDSSLSAVVFGGGTKLTVL")
1.06
>>> result("Anti-HLA-G antibody 4 (antibody, IgG1, V domains shown) VH: EVQLLESGGGLVQPGGSLRLSCAASGFTFSDYSMSWVRQAPGKGLEWVSAISPDSGSKYYADSVKGRFTISRDNSKNTLYLQMNSLRAEDTAVYYCAKGPRHLTNNIFDYWGQGTLVTVSS VL: QSVLTQPPSASGTPGQRVTISCTGSSSNIGSNYVSWYQQLPGTAPKLLIYADSNRPSGVPDRFSGSKSGTSASLAISGLRSEDEADYYCASWDYSLSGYVFGGGTKLTVL")
1.45
>>> result("Anti-HLA-G antibody 2 (antibody, IgG1, V domains shown) VH: EVQLLESGGGLVQPGGSLRLSCAASGFTFSDYAMSWVRQAPGKGLEWVSVISHDGGSIYYADSVKGRFTISRDNSKNTLYLQMNSLRAEDTAVYYCAKGPRRIANAIFDYWGQGTLVTVSS VL: QFVLTQPPSVSAAPGQKVTISCSGSNSNIGNSYVSWYQQVPGAAPRLLIYGSTNRPSGVPDRFSGSKSGTSASLAITGLQAEDEADYYCQSYDSSLSGYVFGTGTKVTVL")
0.549
